molecular target: human D2L dopamine receptors (Homo sapiens); construct: expressed in transfected cells; host or cells: insect Sf9 cells (membranes); assay: hD2L receptor radioligand binding ([3H]spiperone)
Sequence (P14416 whole entry): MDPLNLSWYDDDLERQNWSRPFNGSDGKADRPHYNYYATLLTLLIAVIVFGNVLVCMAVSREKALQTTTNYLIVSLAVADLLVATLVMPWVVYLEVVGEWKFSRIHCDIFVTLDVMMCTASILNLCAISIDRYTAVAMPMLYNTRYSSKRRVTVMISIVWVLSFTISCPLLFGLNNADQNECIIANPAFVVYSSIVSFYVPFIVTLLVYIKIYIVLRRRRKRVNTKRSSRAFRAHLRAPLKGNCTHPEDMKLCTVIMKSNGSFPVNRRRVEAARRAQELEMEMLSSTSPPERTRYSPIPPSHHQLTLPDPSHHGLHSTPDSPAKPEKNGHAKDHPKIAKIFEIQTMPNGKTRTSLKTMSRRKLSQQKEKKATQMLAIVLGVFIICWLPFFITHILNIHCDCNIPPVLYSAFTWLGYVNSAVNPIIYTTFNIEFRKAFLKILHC
REPORTED ENDPOINT: Ki

compound="O=C(C[C@H]1CN(C2=Nc3cc(Cl)ccc3Oc3ccccc32)CCN1)O[C@@H]1CN2CCC1CC2 [DU]" reported_endpoint=Ki reported_result="2.51 to 9.77 µM"

// moving on: another record for Ki
Returns the measured Ki for the input compound. Input: O=C(C[C@H]1CN(C2=Nc3cc(Cl)ccc3Oc3ccccc32)CCN1)O[C@H]1CN2CCC1CC2 [DT]
> 10 µM

====

Observed pKi values for human D2s dopamine receptors (Homo sapiens, UniProt P14416) are listed in what follows.
pKi: −log10 of the molar value.

Record excerpt, results attached:
compound="O=C(C[C@H]1CN(C2=Nc3cc(Cl)ccc3Oc3ccccc32)CCN1)NCCOCCO [FN]" reported_result="5.61 to 6.20"
compound="COC(=O)c1ccc(OCC2CN(C3=Nc4cc(Cl)ccc4Oc4ccccc43)CCN2)cc1 (stereo not drawn) [G]" reported_result="5.01 to 5.60"
compound="O=C(C[C@H]1CN(C2=Nc3cc(Cl)ccc3Oc3ccccc32)CCN1)OC1CCOCC1 [DV]" reported_result="5.61 to 6.20"
compound="O=C(C[C@H]1CN(C2=Nc3cc(Cl)ccc3Oc3ccccc32)CCN1)N1CCOCC1 [GG]" reported_result="5.01 to 5.60"
compound="CN1CCN(C2=Nc3cc(Cl)ccc3Oc3ccccc32)C[C@@H]1CC(=O)NCC(F)(F)C(F)(F)F [EU]" reported_result="5.01 to 5.60"

State its pKi on human D2s dopamine receptors (Homo sapiens, UniProt P14416): COC(=O)COCC1CN(C2=Nc3ccccc3Oc3ccc(Cl)cc32)CCN1C (stereo not drawn) [DM]
Sequence (P14416 1-414 isoform P14416-2): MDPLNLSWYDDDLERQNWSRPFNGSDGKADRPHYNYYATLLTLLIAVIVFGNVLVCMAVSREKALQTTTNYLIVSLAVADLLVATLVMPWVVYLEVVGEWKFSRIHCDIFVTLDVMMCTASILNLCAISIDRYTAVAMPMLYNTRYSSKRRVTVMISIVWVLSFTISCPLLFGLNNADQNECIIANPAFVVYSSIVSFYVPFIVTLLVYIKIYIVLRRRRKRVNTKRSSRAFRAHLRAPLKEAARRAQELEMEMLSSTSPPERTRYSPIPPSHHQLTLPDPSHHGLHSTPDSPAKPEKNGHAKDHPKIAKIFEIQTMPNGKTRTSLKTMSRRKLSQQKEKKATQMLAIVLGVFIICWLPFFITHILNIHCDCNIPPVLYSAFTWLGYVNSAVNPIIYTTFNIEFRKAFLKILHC
< 5.00

Moving on to the next compound: COCCNC(=O)C[C@H]1CN(C2=Nc3cc(Cl)ccc3Oc3ccccc32)CCN1CCO [GI]
< 5.00

Now this one: CCC(C)OC(=O)C[C@H]1CN(C2=Nc3cc(Cl)ccc3Oc3ccccc32)CCN1C (stereo partly drawn) [DY]
5.01 to 5.60

====

Record set of Ki for target or system human 5HT2C receptors (Homo sapiens, UniProt P28335).

Here's what some known entries look like.
molecule=O=C(C[C@H]1CN(C2=Nc3cc(Cl)ccc3Oc3ccccc32)CCN1)NCCOCCO reported_result="0.01 to 0.0977 µM"
molecule="COC(=O)CC1CN(C2=Nc3cc(C(F)(F)F)ccc3Oc3ccccc32)CCN1 (stereo not shown)" reported_result="0.1 to 0.977 µM"
molecule="CCOC(=O)CC1CN(C2=Nc3cc(Cl)ccc3Oc3ccccc32)CCN1C (stereo not shown)" reported_result="0.1 to 0.977 µM"
molecule=O=C(C[C@H]1CN(C2=Nc3cc(Cl)ccc3Oc3ccccc32)CCN1)NCCCO reported_result="0.01 to 0.0977 µM"
molecule="CCOC(=O)CC1CN(C2=Nc3ccc(F)cc3Oc3ccccc32)CCN1 (stereo not shown)" reported_result="0.1 to 0.977 µM"
molecule=CN1CCN(C2=Nc3cc(Cl)ccc3Oc3ccccc32)C[C@@H]1CC(=O)N(CC(F)(F)F)CC(F)(F)F reported_result="1 to 9.77 µM"
molecule=CCOC(=O)C[C@@H]1CN(C2=Nc3cc(Cl)ccc3Oc3ccccc32)CCN1 reported_result="0.01 to 0.0977 µM"
molecule=O=C(C[C@H]1CN(C2=Nc3cc(Cl)ccc3Oc3ccccc32)CCN1)OC1CCOCC1 reported_result="0.01 to 0.0977 µM"

As a next step, examine the molecule that follows.
I am curious: what Ki value has been reported for O=C(C[C@H]1CN(C2=Nc3cc(Cl)ccc3Oc3ccccc32)CCN1)NC[C@@H]1CCCO1 ?
0.01 to 0.0977 µM
